# CONDITION: in acetone, 298.15 K
METRIC NAME: solubility (mole fraction)
Answer as a number with no unit attached.

For the molecule Cc1cccc(C(=O)O)c1[N+](=O)[O-] , give its measured solubility (mole fraction) value. 0.0333

---

# CONDITION: in acetone, 315.65 K
METRIC NAME: solubility (mole fraction)
Could you keep your reply to the number by itself?

Quick one: give measured solubility (mole fraction) for Cc1cccc(C(=O)O)c1[N+](=O)[O-] 0.045

---

# CONDITION: in ethyl acetate, 290.65 K
METRIC NAME: solubility (mole fraction)
# print the numeric value only

Dear colleague, please send me the reported solubility (mole fraction) for Cc1cccc(C(=O)O)c1[N+](=O)[O-] when you can. 0.0108

---

# CONDITION: in acetonitrile, 303.15 K
METRIC NAME: solubility (mole fraction)
// keep it numeric: no unit symbol after the value

In one line, give reported solubility (mole fraction) of the entry Cc1cccc(C(=O)O)c1[N+](=O)[O-] . 0.00846

---

# CONDITION: in NMP, 308.15 K
METRIC NAME: solubility (mole fraction)
Write no unit; give the number alone.

Identify solubility (mole fraction) associated with the molecule Cc1cccc(C(=O)O)c1[N+](=O)[O-] 0.0296

---

# CONDITION: in n-propanol, 295.65 K
METRIC NAME: solubility (mole fraction)
Lab note: record the figure alone, no unit after it.

Note solubility (mole fraction) for the compound shown: Cc1cccc(C(=O)O)c1[N+](=O)[O-] 0.0109

---

# CONDITION: in NMP, 283.15 K
METRIC NAME: solubility (mole fraction)
Lab note: jot down the number only; don't add units.

Supply measured solubility (mole fraction) of Cc1cccc(C(=O)O)c1[N+](=O)[O-] in your reply. 0.0128

---

# CONDITION: in acetone, 293.15 K
METRIC NAME: solubility (mole fraction)

For Cc1cccc(C(=O)O)c1[N+](=O)[O-] , write its solubility (mole fraction). 0.0305

---

# CONDITION: in acetonitrile, 315.65 K
METRIC NAME: solubility (mole fraction)
The response must contain the number and no unit.

Supply reported solubility (mole fraction) belonging to this compound: Cc1cccc(C(=O)O)c1[N+](=O)[O-] 0.0121

---

# CONDITION: in acetonitrile, 298.15 K
METRIC NAME: solubility (mole fraction)
Write the number on its own, no unit after it.

Identify solubility (mole fraction) associated with the molecule Cc1cccc(C(=O)O)c1[N+](=O)[O-] 0.00737

---

# CONDITION: in ethanol, 298.15 K
METRIC NAME: solubility (mole fraction)

Report solubility (mole fraction) for Cc1cccc(C(=O)O)c1[N+](=O)[O-] 0.0165

---

# CONDITION: in acetone, 303.15 K
METRIC NAME: solubility (mole fraction)
Just the number, please.

Supply measured solubility (mole fraction) of Cc1cccc(C(=O)O)c1[N+](=O)[O-] in your reply. 0.0364

---

# CONDITION: in acetonitrile, 283.15 K
METRIC NAME: solubility (mole fraction)
# respond with the number and nothing more

Specify reported solubility (mole fraction) for the molecule shown: Cc1cccc(C(=O)O)c1[N+](=O)[O-] 0.00464

---

# CONDITION: in acetonitrile, 290.65 K
METRIC NAME: solubility (mole fraction)
Give the figure by itself; no unit, no explanation.

Item Cc1cccc(C(=O)O)c1[N+](=O)[O-] : provide solubility (mole fraction) 0.00588
